Molecular target: CaHof1
Experiment: SPOT peptide array binding signal intensity (averaged, normalized) (arbitrary units (background-subtracted, floor 0; scale differs between SH3 domains)); higher = stronger binding of the SH3 domain to the peptide
observed-property: SPOT peptide array binding signal intensity

{"binder": "VNFRRIPTGPDSPPT", "qualifying-sign": "≤", "observed-measurement": 0}
{"binder": "RRRDFGAPANKRPRR", "qualifying-sign": "=", "observed-measurement": 0.5}
{"binder": "KRRAPPPVPKKPSSR", "qualifying-sign": "=", "observed-measurement": 0.75}
{"binder": "RLSFFFPLDPAYIRN", "qualifying-sign": "=", "observed-measurement": 0.5}
{"binder": "VTHRLRISIPGITGR", "qualifying-sign": "=", "observed-measurement": 1.75}
{"binder": "TKFRISLGLPVGAIM", "qualifying-sign": "=", "observed-measurement": 1.25}
{"binder": "PSPSSSPPPIPKTAN", "qualifying-sign": "≤", "observed-measurement": 0}
{"binder": "NNFYRPLLRSVLVLL", "qualifying-sign": "=", "observed-measurement": 0.75}
{"binder": "DGNEEKPLLPTRPNK", "qualifying-sign": "=", "observed-measurement": 0.5}
{"binder": "RMVRRRPLRVQFSAR", "qualifying-sign": "=", "observed-measurement": 2.5}
{"binder": "QHQQRQPKRPKRYSL", "qualifying-sign": "=", "observed-measurement": 2}
{"binder": "TPEIPPPLPPKIMVH", "qualifying-sign": "=", "observed-measurement": 20.5}
{"binder": "ATNVPVAPPPPPASL", "qualifying-sign": "=", "observed-measurement": 1}
{"binder": "SAPDIPPRSPNRNAH", "qualifying-sign": "≤", "observed-measurement": 0}
{"binder": "VPVAPPPPPASLGQS", "qualifying-sign": "≤", "observed-measurement": 0}
{"binder": "KKIRLIFTYPSTVGR", "qualifying-sign": "=", "observed-measurement": 2.25}
{"binder": "LSKRLPLRFPEHTSS", "qualifying-sign": "=", "observed-measurement": 0.75}
{"binder": "NMLSRPRLAKLPSIR", "qualifying-sign": "=", "observed-measurement": 0.25}
{"binder": "TKIRRRPQQPLTDFT", "qualifying-sign": "=", "observed-measurement": 0.25}
{"binder": "FYNRTAFQLPGDARV", "qualifying-sign": "=", "observed-measurement": 0.5}
{"binder": "KDKSRPPRPPPKPLH", "qualifying-sign": "≤", "observed-measurement": 0}
{"binder": "FVLRYYILIPHEQWD", "qualifying-sign": "=", "observed-measurement": 0.75}
{"binder": "LRWRHKFFLPAIAAI", "qualifying-sign": "≤", "observed-measurement": 0}
{"binder": "QLLNPNRRAPRRPLS", "qualifying-sign": "=", "observed-measurement": 0.25}
{"binder": "NFLRLLIGLPSQNEL", "qualifying-sign": "=", "observed-measurement": 1.5}
{"binder": "SNRRPVPRRPSQPLN", "qualifying-sign": "≤", "observed-measurement": 0}
{"binder": "LLRRTIPKRPFYHVL", "qualifying-sign": "=", "observed-measurement": 0.5}
{"binder": "MFLISPPASPPPEFD", "qualifying-sign": "≤", "observed-measurement": 0}
{"binder": "GRSRLFPHSPLGRSS", "qualifying-sign": "=", "observed-measurement": 0.75}
{"binder": "MTKTPETSPPKRPMG", "qualifying-sign": "=", "observed-measurement": 2}
